- Run Description: physchem
Parameter: pKa

>>> reported_result("CNCC[C@@H](Oc1cc(Cl)ccc1C#N)c1ccccc1")
9.9
>>> reported_result("COCCOc1nc(N)c2[nH]c(=O)n(Cc3ccccc3)c2n1")
2.4
>>> reported_result("COc1ccc([C@@H]2Sc3ccccc3N(CCN(C)C)C(=O)[C@@H]2OC(C)=O)cc1")
8.08
>>> reported_result("NCC1Cc2c1ccc(O)c2O (stereo unspecified)")
8.5
>>> reported_result("CN(C)C1CCc2c(ccc(O)c2O)C1 (stereo unspecified)")
10.5
>>> reported_result("CCOC(=O)N1CCC2(CC1)N=C(N)c1c(F)cccc1N2")
9.1

====

Recorded logD values for a group of compounds are listed next.
- Run Description: physchem
- Applied Conditions: octan-1-ol/water, pH 7.4, LogD7.4
Parameter: logD

>>> reported_result("O=c1cc(-c2ccc(O)cc2)oc2ccc(O)cc12")
3.3
>>> reported_result("Cc1ccc(S(=O)(=O)NC(=O)N2CCC(N3CCC(Oc4ccc(F)c(F)c4)CC3)CC2)cc1")
0.75
>>> reported_result("Cc1cc(CNc2nccc(Nc3cc(C)[nH]n3)n2)on1")
1.86
>>> reported_result("Nc1nnc(-c2ccccc2)s1")
1.8
>>> reported_result("CS(=O)(=O)c1ccc(CC(=O)N(C2CC2)C2CCN(CCC(c3ccccc3)c3ccccc3)CC2)cc1")
2.89
>>> reported_result("Cc1cc(CN2CCc3ccccc3C2C(=O)Nc2ccc(Cl)cc2Cl)ccc1OCC(=O)O (stereo not given)")
2.63
>>> reported_result("Cc1nccn1CC1CCc2c(c3ccccc3n2C)C1=O (stereo not given)")
1.67
>>> reported_result("CCCSc1nc(N2CCC(C(=O)O)CC2)ccc1C(=O)NC1CCCCC1")
1.6
>>> reported_result("CCC(=O)NCC[C@@H]1CCc2ccc3c(c21)CCO3")
2.57
>>> reported_result("Cc1ccc(NC(=O)c2cncs2)cc1-n1cnc2ccc(N3CCN(C)CC3)cc2c1=O")
2.11

====

- Run Description: physchem
- Applied Conditions: octan-1-ol/water, pH 7.4, LogD7.4
Threshold 2. logD below it: fulfilled. logD at it or above: not fulfilled.

>>> label_class("CO[C@H]1CC[C@]2(CC1)Cc1ccc(-c3cc(Cl)cc(C#N)c3)cc1C21N=C(C)C(N)=N1 (stereo partly specified)")
"not fulfilled"
>>> label_class("COc1ccc(CNC(=O)CSc2nc3cccnc3s2)cc1")
"not fulfilled"
>>> label_class("O=c1[nH]c2c(O)ccc([C@@H](O)CNCCc3ccccc3CNCCc3ccccc3F)c2s1")
"fulfilled"
>>> label_class("CN(CCOc1ccc(C[C@H](Nc2ccccc2C(=O)c2ccccc2)C(=O)O)cc1)c1nc2ccccc2o1")
"not fulfilled"
>>> label_class("COc1ccc(-c2cccc3c(N)c4c(nc23)CN(C2CCC2)C4=O)c(C)n1")
"not fulfilled"
>>> label_class("CS(=O)(=O)c1ccc(C(CCNC(=O)c2ccc(C#N)cc2)c2ccc(F)cc2)cc1 (stereo unspecified)")
"not fulfilled"
>>> label_class("COc1cc2ncc(C(N)=O)c(Nc3cccc(Cl)c3F)c2cc1OC")
"not fulfilled"
>>> label_class("O=C(NO)c1ccc(NS(=O)(=O)c2ccccc2)cc1")
"fulfilled"
>>> label_class("Cc1ncc(-c2ccnc(Nc3ccc(C(N)=O)c(F)c3)n2)n1C(C)C")
"not fulfilled"
>>> label_class("N#Cc1c(-c2ccc(-c3ccccc3OC(F)(F)F)cc2)nc2ccncc2c1O")
"not fulfilled"
>>> label_class("Nc1ccc(/N=N/c2ccccc2)c(N)n1 [PHENAZOPYRIDINE]")
"not fulfilled"
>>> label_class("NC(=O)c1cnc(N[C@H]2CCCNC2)c2cc(Br)sc12")
"fulfilled"
>>> label_class("Oc1ccc(-c2ccc3cc(O)ccc3n2)cc1")
"not fulfilled"
>>> label_class("CCOC(=O)c1coc2ccccc2c1=O")
"fulfilled"
>>> label_class("COc1cc(-n2cnc3cc(-c4ccc(Cl)cc4)sc3c2=O)ccc1OCCN1CCCC1")
"not fulfilled"
>>> label_class("O=C(CC1CCN(Cc2ccn(-c3ccc(C(F)(F)F)cc3)c2)CC1)NC(c1ccc(F)cc1)c1ccc(=O)[nH]c1 (stereo unspecified)")
"not fulfilled"
>>> label_class("COCCC(=O)Nc1ccc(Nc2ncc3cc(-c4ccncc4)ccc3n2)cc1")
"not fulfilled"
>>> label_class("NC(=O)c1cnc2[nH]c(-c3ccc(OCCN4CCCCC4)cc3)nc2c1NCCCNC(=O)C1CCC1")
"not fulfilled"
>>> label_class("C[C@@H]1CN(C(=O)[C@@](C)(O)C(F)(F)F)[C@@H](C)CN1C(=O)c1ccc(C#N)cc1")
"fulfilled"
>>> label_class("Cc1nc(C)c(-c2ccc([C@H]3CC[C@@H](CC(=O)O)CC3)c(F)c2)nc1C(N)=O")
"fulfilled"
>>> label_class("CN1CCN(C(=O)c2cc(-c3ccccc3)sc2NC(N)=O)CC1")
"not fulfilled"
>>> label_class("CCN1CCC[C@H]1CNC(=O)c1cc(Br)cc(OC)c1OC")
"fulfilled"
>>> label_class("CN(C)CC(O)COc1ccc(Nc2nccc(Nc3ccccc3C#N)n2)cc1 (stereo unspecified)")
"fulfilled"
>>> label_class("CCNc1ccc(-c2ccccc2)n(CC(=O)NC(C(=O)C(F)(F)F)C(C)C)c1=O (stereo unspecified)")
"not fulfilled"
>>> label_class("Cc1ccc(NC(=O)c2ccnc(N3CCOCC3)c2)cc1Nc1ccnc(OC2CCN(C)CC2)n1")
"fulfilled"
>>> label_class("COc1cc2ncnc(Nc3cccc(Cl)c3F)c2cc1CN1CCC[C@H]1CC(N)=O")
"not fulfilled"
>>> label_class("CN(C)S(=O)(=O)c1ccc2c(C(=O)NC[C@@H](O)CN3CCC(Oc4ccc(Cl)c(Cl)c4)CC3)c[nH]c(=O)c2c1")
"not fulfilled"
>>> label_class("N#Cc1ccccc1Oc1ccc(C(=O)NCc2ccncc2)cc1")
"not fulfilled"
>>> label_class("c1cn(-c2ccc(Oc3cc(Oc4ccc5c(c4)OCO5)ncn3)cc2)cn1")
"not fulfilled"
>>> label_class("CC(=O)Nc1nc(CCc2ccc(NC(=N)N)cc2)cs1")
"fulfilled"
>>> label_class("O=C1C(=O)c2cccc([N+](=O)[O-])c2-c2ccccc21")
"not fulfilled"
>>> label_class("COC(Cn1c(=O)[nH]c2c(=O)n(CC(=O)NC(C(=O)C(F)(F)F)C(C)C)c(-c3ccccc3)cc2c1=O)OC (stereo unspecified)")
"fulfilled"
>>> label_class("O=C(Cc1ccccc1)c1ccc(O)cc1O")
"not fulfilled"
>>> label_class("NC(=O)c1cccc(OC2CCN(Cc3ccccc3)CC2)c1")
"fulfilled"
>>> label_class("CCOC(=O)c1ccc(OCCC2CN(c3ccc(C)nn3)C2)cc1")
"not fulfilled"
>>> label_class("O=C(O)CCc1ccc(OCc2cccc(Oc3ccccc3)c2)cc1")
"not fulfilled"
>>> label_class("C[C@H]1O[C@@H](n2cnc3c(N)nc(OCC4CCC(F)(F)CC4)nc32)[C@H](O)[C@@H]1O")
"fulfilled"
>>> label_class("N=C(N)NC(=O)c1nc(Cl)c(NCc2ccccn2)nc1N")
"fulfilled"
>>> label_class("COc1cc(C(=O)NC[C@@H](O)CN2CCC(Oc3ccc(Cl)c(Cl)c3)CC2)ccc1N")
"not fulfilled"
>>> label_class("CNC(=O)c1ccccc1Sc1ccc2c(/C=C/c3ccccn3)n[nH]c2c1 [AXITINIB]")
"not fulfilled"
>>> label_class("C[C@@H](Oc1cccc2ncnc(Nc3ccc4c(cnn4Cc4ccccn4)c3)c12)C(=O)N(C)C")
"not fulfilled"
